target: USP15 (UniProt Q9Y4E8); assay: log2 ratio of Biotin-Ahx-Ub-VS probe labelling (fragment/DMSO); higher = less target engagement (more negative = stronger competition), active = hit call of the paper (q ≤ 0.05, log2 ratio ≤ -1); settings: compound concentration: 200 uM; treatment time: 3 h
Sequence (Q9Y4E8 whole entry, the tested form may be a part): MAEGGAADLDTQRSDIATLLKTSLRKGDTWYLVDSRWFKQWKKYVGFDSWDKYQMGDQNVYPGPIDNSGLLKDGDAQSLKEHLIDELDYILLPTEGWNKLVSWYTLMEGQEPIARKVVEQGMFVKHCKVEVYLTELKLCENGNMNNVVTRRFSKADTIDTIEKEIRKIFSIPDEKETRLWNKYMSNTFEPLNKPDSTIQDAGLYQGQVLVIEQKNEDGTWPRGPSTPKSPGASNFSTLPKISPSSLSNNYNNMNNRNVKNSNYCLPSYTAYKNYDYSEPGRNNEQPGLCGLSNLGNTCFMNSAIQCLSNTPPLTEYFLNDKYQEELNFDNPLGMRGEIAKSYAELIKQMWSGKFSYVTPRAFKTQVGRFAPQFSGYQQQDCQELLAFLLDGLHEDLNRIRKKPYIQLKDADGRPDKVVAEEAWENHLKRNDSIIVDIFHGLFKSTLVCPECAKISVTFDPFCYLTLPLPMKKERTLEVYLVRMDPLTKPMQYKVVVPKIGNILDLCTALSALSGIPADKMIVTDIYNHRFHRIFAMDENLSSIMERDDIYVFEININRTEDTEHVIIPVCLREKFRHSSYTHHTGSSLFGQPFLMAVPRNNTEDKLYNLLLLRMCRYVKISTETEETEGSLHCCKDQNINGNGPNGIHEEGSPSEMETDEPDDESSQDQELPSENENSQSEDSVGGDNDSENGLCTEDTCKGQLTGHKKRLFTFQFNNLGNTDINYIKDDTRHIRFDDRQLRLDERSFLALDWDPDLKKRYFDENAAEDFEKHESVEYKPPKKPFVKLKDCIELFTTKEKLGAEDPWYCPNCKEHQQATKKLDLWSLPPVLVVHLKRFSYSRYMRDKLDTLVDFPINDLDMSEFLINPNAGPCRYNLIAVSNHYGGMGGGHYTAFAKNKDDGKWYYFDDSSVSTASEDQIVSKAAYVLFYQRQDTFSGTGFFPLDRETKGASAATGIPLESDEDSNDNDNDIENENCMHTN
Overview of recorded log2 ratio of Biotin-Ahx-Ub-VS probe labelling for various compounds
observation_type: log2 ratio of Biotin-Ahx-Ub-VS probe labelling

Cl.O=C(CCl)N1CCn2ncc(O)c2C1 ... -0.99 (inactive)
COc1ccccc1C(C)NC(=O)CCl (centres undefined) ... -0.251 (inactive)
O=C(CCl)NC(Cn1ccccc1=O)c1ccccc1 (centres undefined) ... -0.0415 (inactive)
CC(NC(=O)CCl)c1cccc(Cl)c1 (centres undefined) ... -0.301 (inactive)
O=C(CCl)N1CCc2nc[nH]c2C1c1ccc(Cl)cc1 (centres undefined) ... -0.182 (inactive)
O=C(CCl)N(C1=CCCCC1)C1CC1 ... -0.209 (inactive)
CCc1c[nH]c(CNC(=O)CCl)n1.Cl ... -0.538 (inactive)
O=C(CCl)Nc1ccc(F)cc1Cl ... 0.0309 (inactive)
COc1ccc(Cl)cc1NC(=O)CCl ... -0.674 (inactive)

----------
target: ATXN3 (UniProt P54252); test: log2 ratio of Biotin-Ahx-Ub-VS probe labelling (fragment/DMSO); higher = less target engagement (more negative = stronger competition), active = hit call of the paper (q ≤ 0.05, log2 ratio ≤ -1); settings: compound concentration: 200 uM; treatment time: 3 h
Sequence (P54252 whole entry, the tested form may be a part): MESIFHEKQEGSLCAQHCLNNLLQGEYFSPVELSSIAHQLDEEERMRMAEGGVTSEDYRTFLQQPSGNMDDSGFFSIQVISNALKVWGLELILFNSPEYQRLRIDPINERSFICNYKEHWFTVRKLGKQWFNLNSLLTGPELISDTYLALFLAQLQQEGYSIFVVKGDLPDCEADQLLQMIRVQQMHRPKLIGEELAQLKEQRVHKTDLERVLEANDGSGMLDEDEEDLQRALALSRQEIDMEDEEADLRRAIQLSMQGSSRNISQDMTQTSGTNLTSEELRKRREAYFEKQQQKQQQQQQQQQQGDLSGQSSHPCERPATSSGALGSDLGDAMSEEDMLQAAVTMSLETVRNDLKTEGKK
observation_type: log2 ratio of Biotin-Ahx-Ub-VS probe labelling

CCN(Cc1ccc(C#N)cc1F)C(=O)CCl ... -1.1
CC(=O)C1CCCCN1C(=O)CCl (stereo not drawn) ... 0.025
O=C(CCl)N1CCOC2(CCC2)C1 ... -0.0796

----------
molecular target: ALG13 (UniProt Q9NP73); experiment: log2 ratio of Biotin-Ahx-Ub-VS probe labelling (fragment/DMSO); higher = less target engagement (more negative = stronger competition), active = hit call of the paper (q ≤ 0.05, log2 ratio ≤ -1); conditions: compound concentration: 200 uM; treatment time: 3 h
Sequence (Q9NP73 whole entry, the tested form may be a part): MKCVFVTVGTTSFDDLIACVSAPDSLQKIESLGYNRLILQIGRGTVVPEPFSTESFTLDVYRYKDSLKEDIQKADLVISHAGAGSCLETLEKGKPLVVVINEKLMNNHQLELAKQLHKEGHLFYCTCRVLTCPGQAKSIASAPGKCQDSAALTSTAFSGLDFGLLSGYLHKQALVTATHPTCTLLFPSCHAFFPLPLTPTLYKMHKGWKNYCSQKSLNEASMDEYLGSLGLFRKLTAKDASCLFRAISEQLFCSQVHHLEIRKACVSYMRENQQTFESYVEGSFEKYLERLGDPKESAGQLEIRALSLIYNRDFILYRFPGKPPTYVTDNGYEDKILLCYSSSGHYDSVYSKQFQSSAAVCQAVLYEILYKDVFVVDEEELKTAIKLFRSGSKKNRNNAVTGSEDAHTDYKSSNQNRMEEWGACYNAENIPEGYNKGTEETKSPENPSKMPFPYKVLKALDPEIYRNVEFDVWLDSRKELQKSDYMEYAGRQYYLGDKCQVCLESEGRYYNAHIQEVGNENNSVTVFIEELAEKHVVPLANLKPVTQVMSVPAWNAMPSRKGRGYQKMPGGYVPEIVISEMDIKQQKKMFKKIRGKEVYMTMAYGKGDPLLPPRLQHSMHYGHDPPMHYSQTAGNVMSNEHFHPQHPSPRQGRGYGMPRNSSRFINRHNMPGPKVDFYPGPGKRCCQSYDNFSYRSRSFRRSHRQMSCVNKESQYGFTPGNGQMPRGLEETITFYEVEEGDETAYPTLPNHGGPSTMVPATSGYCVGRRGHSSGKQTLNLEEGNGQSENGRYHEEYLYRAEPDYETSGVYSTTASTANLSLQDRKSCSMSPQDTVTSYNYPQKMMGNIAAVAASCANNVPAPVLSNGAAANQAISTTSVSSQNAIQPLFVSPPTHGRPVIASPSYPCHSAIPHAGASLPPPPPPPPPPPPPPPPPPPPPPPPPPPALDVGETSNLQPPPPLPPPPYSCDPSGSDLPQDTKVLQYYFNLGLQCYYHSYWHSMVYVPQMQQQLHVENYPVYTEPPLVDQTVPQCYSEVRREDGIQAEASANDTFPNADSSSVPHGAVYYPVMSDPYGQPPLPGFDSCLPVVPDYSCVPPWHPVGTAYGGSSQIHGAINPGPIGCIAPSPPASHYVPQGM
# log2 ratio of Biotin-Ahx-Ub-VS probe labelling listing for each entry below
observation_type: log2 ratio of Biotin-Ahx-Ub-VS probe labelling

O=C(CCl)Nc1ccc(Cl)c(F)c1 ... 0.149
Cl.O=C(CCl)N1CCc2ncncc2C1 ... -0.17
Cc1cccc2nc(CCNC(=O)CCl)cn12.Cl ... -0.496
O=C(CCl)Nc1cc(Cl)ccc1C(=O)O ... -0.0259
O=C(CCl)Nc1cc2c(cc1Cl)OCCCO2 ... 0.0687
Cl.O=C(CCl)NCc1ccnc(Oc2ccccc2F)c1 ... 0.177
O=C(CCl)NCCc1ccc(F)cc1 ... -0.037
O=C(CCl)Nc1ccc(F)cc1Cl ... -0.23
CC(C)n1nccc1NC(=O)CCl ... -0.568
O=C(CCl)N1CCC2(CCC(O)CC2)CC1 ... -0.532
O=C(CCl)N1CCN(c2nc3ccccc3o2)CC1 ... 0.254

----------
Molecular target: USP42 (UniProt Q9H9J4)
Sequence (whole entry): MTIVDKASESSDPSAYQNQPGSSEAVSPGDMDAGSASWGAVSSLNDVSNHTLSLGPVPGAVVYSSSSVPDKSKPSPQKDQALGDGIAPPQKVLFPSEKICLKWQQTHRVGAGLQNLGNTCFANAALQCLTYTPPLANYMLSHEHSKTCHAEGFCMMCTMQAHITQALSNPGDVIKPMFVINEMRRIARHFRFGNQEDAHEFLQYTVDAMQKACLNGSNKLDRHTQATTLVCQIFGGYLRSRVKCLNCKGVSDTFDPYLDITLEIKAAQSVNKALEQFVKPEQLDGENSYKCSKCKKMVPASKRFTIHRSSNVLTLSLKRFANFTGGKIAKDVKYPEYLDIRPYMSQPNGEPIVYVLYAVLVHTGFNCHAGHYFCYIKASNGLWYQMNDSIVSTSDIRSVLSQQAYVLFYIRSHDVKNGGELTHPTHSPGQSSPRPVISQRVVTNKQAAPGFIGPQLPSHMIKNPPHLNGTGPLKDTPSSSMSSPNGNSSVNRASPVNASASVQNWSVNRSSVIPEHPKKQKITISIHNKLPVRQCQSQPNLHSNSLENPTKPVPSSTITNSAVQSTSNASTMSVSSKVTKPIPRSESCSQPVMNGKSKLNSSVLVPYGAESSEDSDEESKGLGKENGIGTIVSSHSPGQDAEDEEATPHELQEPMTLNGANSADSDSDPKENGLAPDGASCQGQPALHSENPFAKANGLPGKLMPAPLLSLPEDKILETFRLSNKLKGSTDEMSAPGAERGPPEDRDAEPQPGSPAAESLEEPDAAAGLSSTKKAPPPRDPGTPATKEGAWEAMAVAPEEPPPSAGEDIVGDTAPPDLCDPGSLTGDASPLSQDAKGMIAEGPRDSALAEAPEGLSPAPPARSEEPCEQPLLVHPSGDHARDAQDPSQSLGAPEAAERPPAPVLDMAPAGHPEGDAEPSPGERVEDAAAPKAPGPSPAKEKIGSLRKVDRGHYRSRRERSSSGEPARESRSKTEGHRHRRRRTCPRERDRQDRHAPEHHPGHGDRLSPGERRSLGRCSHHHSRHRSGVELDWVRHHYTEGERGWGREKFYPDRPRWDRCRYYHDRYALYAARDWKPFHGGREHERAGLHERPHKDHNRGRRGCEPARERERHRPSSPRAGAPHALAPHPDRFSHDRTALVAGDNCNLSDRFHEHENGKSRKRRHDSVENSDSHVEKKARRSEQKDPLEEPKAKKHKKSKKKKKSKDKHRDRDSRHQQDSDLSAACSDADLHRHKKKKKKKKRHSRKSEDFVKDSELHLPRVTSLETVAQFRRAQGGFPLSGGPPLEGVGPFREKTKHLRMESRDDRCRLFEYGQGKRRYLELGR
Experiment: log2 ratio of Biotin-Ahx-Ub-VS probe labelling (fragment/DMSO); higher = less target engagement (more negative = stronger competition), active = hit call of the paper (q ≤ 0.05, log2 ratio ≤ -1)
Conditions: compound concentration: 200 uM; treatment time: 3 h
observation_type: log2 ratio of Biotin-Ahx-Ub-VS probe labelling

Cc1noc(C)c1CNC(=O)CCl ... 0.262 (inactive)
O=C(CCl)N1CCCCC12CCOCC2 ... -0.368 (inactive)
Cc1ncc2c(n1)CCN(C(=O)CCl)C2 ... 0.492 (inactive)
COc1ccc(-c2csc(NC(=O)CCl)n2)cc1 ... -0.269 (inactive)
Cl.O=C(CCl)N1CCc2ncncc2C1 ... 0.0472 (inactive)
O=C(CCl)Nc1cccc(NC(=O)c2ccccc2)c1 ... 0.808 (inactive)
CC(c1ccccc1)N(C)C(=O)CCl (configuration not stated) ... -0.0241 (inactive)
O=C(CCl)N1CCN(C(=O)N2CCCCC2)CC1 ... 0.232 (inactive)
Cc1cccc(NC(=O)[C@@H]2CCCN2C(=O)CCl)n1 ... 0.315 (inactive)
O=C(CCl)Nc1ccc(Cl)c(F)c1 ... -0.0407 (inactive)
Cc1ccc(N(CCC#N)C(=O)CCl)cc1C ... -0.126 (inactive)
Cl.O=C(CCl)N1CCN(Cc2ccccc2)CC1 ... 0.128 (inactive)
O=C(CCl)N(Cc1ccsc1)C1CC1 ... -0.0609 (inactive)
O=C(CCl)Nc1cc2c(cc1Cl)OCCO2 ... 0.233 (inactive)
CN1C(=O)c2ccc(NC(=O)CCl)cc2C1=O ... 0.714 (inactive)
Cc1ccc(CN(C)C(=O)CCl)o1 ... 0.191 (inactive)
CC(NC(=O)CCl)c1noc(Cc2ccccc2)n1 (configuration not stated) ... 0.115 (inactive)
O=C(O)C1Cc2ccccc2CN1C(=O)CCl (configuration not stated) ... -0.449 (inactive)
Cc1cccnc1NC(=O)C1CCN(C(=O)CCl)CC1.Cl ... -0.427 (inactive)
O=C(CCl)NCc1ccc(N2CCOCC2)nc1 ... -0.0847 (inactive)
CNC(=O)C1(NC(=O)CCl)CCCCC1 ... -0.202 (inactive)
O=C(CCl)NCc1cccc(F)c1 ... -0.105 (inactive)
CN(C)C(=O)c1ccc(NC(=O)CCl)cc1 ... -0.0444 (inactive)
O=C(CCl)N1CCC(S(=O)(=O)c2ccc(F)cc2)CC1 ... -0.133 (inactive)
C[C@@H](NC(=O)CCl)c1cccc(C#N)c1 ... 0.213 (inactive)
O=C(CCl)N1CCOC(CCc2ccccc2)C1 (configuration not stated) ... 0.335 (inactive)
O=C(CCl)N1CCCN(C(=O)c2ccc(Cl)cc2)CC1 ... -0.0422 (inactive)
O=C(CCl)Nc1ccc(N2CCCC2=O)cc1 ... -0.131 (inactive)
Cl.O=C(CCl)NC1(c2ncccn2)CCC1 ... 0.259 (inactive)
O=C(CCl)N[C@H]1CC[C@@H](CO)CC1 ... 0.163 (inactive)
O=C(CCl)N1CCC(=C(F)CO)C1 ... 0.374 (inactive)
O=C(CCl)N1CCN(C(=O)Nc2ccccc2)CC1 ... 0.532 (inactive)
Cl.Cn1nccc1C(NC(=O)CCl)c1ccccc1 (configuration not stated) ... 0.0316 (inactive)
Cc1cc(Cl)ccc1NC(=O)CCl ... -0.0727 (inactive)
CN(C(=O)CCl)c1nc2ccccc2s1 ... 0.236 (inactive)
N#Cc1ccc(Cl)cc1NC(=O)CCl ... -0.385 (inactive)
CN(C)S(=O)(=O)c1ccccc1CNC(=O)CCl ... 0.185 (inactive)
Cl.O=C(CCl)N1CCC(n2nc3ccccc3n2)CC1 ... 0.181 (inactive)
O=C(CCl)Nc1nnc(CC(F)(F)F)o1 ... -0.117 (inactive)
CN(C)C(=O)c1ccc(CNC(=O)CCl)cc1 ... -0.0843 (inactive)
O=C(CCl)N1CCCCCC1c1ncon1 (configuration not stated) ... -0.342 (inactive)
O=C(CCl)NCCC1COCCO1 (configuration not stated) ... 0.357 (inactive)
O=C(CCl)NC1CCS(=O)(=O)c2ccccc21 (configuration not stated) ... -0.57 (inactive)
O=C(CN1CCN(C(=O)CCl)CC1)Nc1cccc(F)c1 ... -0.241 (inactive)
O=C(CCl)N1CCc2ccccc2C(O)C1 (configuration not stated) ... 0.325 (inactive)
CNC(=O)Cn1cc(NC(=O)CCl)cn1 ... -0.595 (inactive)
N#Cc1cnn(-c2ccccc2)c1NC(=O)CCl ... -0.0771 (inactive)
